These data points were gathered from the Human Domainome abundance scans (Beltran et al. 2025).

B1: POU domain, class 4, transcription factor 1, residues 266 to 347; numbered along this chain, Q01851 (parent)
chain: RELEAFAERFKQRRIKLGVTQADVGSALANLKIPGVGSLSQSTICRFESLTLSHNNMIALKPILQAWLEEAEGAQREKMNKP

variants of: B1; assay: abundance fitness (aPCA) (normalised: wild type 0, dead -1); higher = more abundant; growth selection in yeast, the domain comes from the species named; settings: Homo sapiens

[
  {
    "mutations": "M79N",
    "abundance fitness": 0.023
  },
  {
    "mutations": "L28C",
    "abundance fitness": -0.042
  },
  {
    "mutations": "I58H",
    "abundance fitness": -0.169
  },
  {
    "mutations": "K78R",
    "abundance fitness": 0.047
  },
  {
    "mutations": "N56V",
    "abundance fitness": 0.066
  },
  {
    "mutations": "S38R",
    "abundance fitness": 0.048
  },
  {
    "mutations": "E2N",
    "abundance fitness": 0.025
  },
  {
    "mutations": "L17K",
    "abundance fitness": -0.62
  },
  {
    "mutations": "F10S",
    "abundance fitness": -0.914
  },
  {
    "mutations": "V19Y",
    "abundance fitness": -0.027
  },
  {
    "mutations": "S26K",
    "abundance fitness": -0.029
  },
  {
    "mutations": "S42M",
    "abundance fitness": -0.042
  },
  {
    "mutations": "A27M",
    "abundance fitness": -0.175
  },
  {
    "mutations": "L39F",
    "abundance fitness": -0.211
  },
  {
    "mutations": "E8Y",
    "abundance fitness": -0.017
  },
  {
    "mutations": "E2R",
    "abundance fitness": -0.266
  },
  {
    "mutations": "L28D",
    "abundance fitness": -0.624
  },
  {
    "mutations": "G73V",
    "abundance fitness": 0.071
  },
  {
    "mutations": "Q12E",
    "abundance fitness": 0.015
  },
  {
    "mutations": "S53K",
    "abundance fitness": -0.269
  },
  {
    "mutations": "L3Y",
    "abundance fitness": -0.107
  },
  {
    "mutations": "M57G",
    "abundance fitness": -0.449
  },
  {
    "mutations": "I58V",
    "abundance fitness": -0.035
  },
  {
    "mutations": "M79Q",
    "abundance fitness": -0.03
  },
  {
    "mutations": "E72N",
    "abundance fitness": -0.35
  },
  {
    "mutations": "H54Q",
    "abundance fitness": -0.02
  },
  {
    "mutations": "K11H",
    "abundance fitness": 0.175
  },
  {
    "mutations": "A59F",
    "abundance fitness": 0
  },
  {
    "mutations": "R13C",
    "abundance fitness": -0.369
  },
  {
    "mutations": "D23S",
    "abundance fitness": -0.027
  },
  {
    "mutations": "L50K",
    "abundance fitness": 0.029
  },
  {
    "mutations": "E77T",
    "abundance fitness": -0.064
  },
  {
    "mutations": "I15P",
    "abundance fitness": -0.989
  },
  {
    "mutations": "L31N",
    "abundance fitness": -0.168
  },
  {
    "mutations": "G37W",
    "abundance fitness": -0.328
  },
  {
    "mutations": "F6T",
    "abundance fitness": -0.452
  },
  {
    "mutations": "R1L",
    "abundance fitness": -0.084
  },
  {
    "mutations": "M57P",
    "abundance fitness": -0.606
  },
  {
    "mutations": "E70V",
    "abundance fitness": -0.176
  },
  {
    "mutations": "S42I",
    "abundance fitness": -0.034
  },
  {
    "mutations": "K32L",
    "abundance fitness": -0.105
  },
  {
    "mutations": "L17W",
    "abundance fitness": -0.336
  },
  {
    "mutations": "S26W",
    "abundance fitness": 0.024
  },
  {
    "mutations": "N55G",
    "abundance fitness": 0.044
  },
  {
    "mutations": "Q75I",
    "abundance fitness": -0.051
  },
  {
    "mutations": "L68T",
    "abundance fitness": -0.459
  },
  {
    "mutations": "I63D",
    "abundance fitness": -0.41
  },
  {
    "mutations": "H54D",
    "abundance fitness": -0.039
  },
  {
    "mutations": "M79S",
    "abundance fitness": -0.024
  },
  {
    "mutations": "E4R",
    "abundance fitness": -0.065
  },
  {
    "mutations": "E4I",
    "abundance fitness": 0.107
  },
  {
    "mutations": "V24F",
    "abundance fitness": -0.337
  },
  {
    "mutations": "S53Y",
    "abundance fitness": -0.131
  },
  {
    "mutations": "K32N",
    "abundance fitness": -0.076
  },
  {
    "mutations": "A27D",
    "abundance fitness": -0.043
  },
  {
    "mutations": "R46G",
    "abundance fitness": -0.038
  },
  {
    "mutations": "H54F",
    "abundance fitness": -0.02
  },
  {
    "mutations": "G73T",
    "abundance fitness": 0.063
  },
  {
    "mutations": "P82V",
    "abundance fitness": -0.053
  },
  {
    "mutations": "Q75V",
    "abundance fitness": -0.025
  },
  {
    "mutations": "R14G",
    "abundance fitness": -1.07
  },
  {
    "mutations": "S53Q",
    "abundance fitness": -0.013
  },
  {
    "mutations": "N30L",
    "abundance fitness": -0.084
  },
  {
    "mutations": "V19E",
    "abundance fitness": -0.396
  },
  {
    "mutations": "R46K",
    "abundance fitness": 0.005
  },
  {
    "mutations": "L50M",
    "abundance fitness": 0.055
  },
  {
    "mutations": "A71H",
    "abundance fitness": -0.146
  }
]
